- target_or_system: His-PKC-theta (Homo sapiens, UniProt Q04759)
- Construct: His; purchased Invitrogen
- Sequence (Q04759 whole entry): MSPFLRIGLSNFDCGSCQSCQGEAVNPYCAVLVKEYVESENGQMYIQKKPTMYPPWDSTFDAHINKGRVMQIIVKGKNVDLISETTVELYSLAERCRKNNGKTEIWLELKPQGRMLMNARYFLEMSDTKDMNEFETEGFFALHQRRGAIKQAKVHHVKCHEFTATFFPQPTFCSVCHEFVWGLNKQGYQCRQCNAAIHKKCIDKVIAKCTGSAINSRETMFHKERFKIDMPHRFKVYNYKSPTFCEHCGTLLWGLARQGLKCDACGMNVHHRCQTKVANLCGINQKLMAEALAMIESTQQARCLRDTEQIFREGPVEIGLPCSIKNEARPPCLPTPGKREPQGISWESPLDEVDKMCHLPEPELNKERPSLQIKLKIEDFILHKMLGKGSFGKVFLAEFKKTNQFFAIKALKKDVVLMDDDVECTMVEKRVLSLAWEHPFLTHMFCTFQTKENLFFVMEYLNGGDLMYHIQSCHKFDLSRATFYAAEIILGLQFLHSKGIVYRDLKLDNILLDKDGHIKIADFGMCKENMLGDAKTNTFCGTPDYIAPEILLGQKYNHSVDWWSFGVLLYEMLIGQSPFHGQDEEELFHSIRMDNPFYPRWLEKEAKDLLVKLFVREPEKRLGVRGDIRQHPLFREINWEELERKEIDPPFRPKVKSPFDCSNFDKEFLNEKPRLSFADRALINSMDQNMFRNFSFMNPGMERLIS
- method_description: PKC-theta Assay (384-well time resolved fluorescence, IMAP TR-FRET)
- Assay type: biochemical
- applied_conditions: read-out: Act. Level (IC50 in the PKC-theta Assay)
property_label: IC50

Recorded IC50, per entry:
[[record]]
compound = "CC1(C)C[C@H](Nc2nc(NCCc3cccc4cc[nH]c34)ncc2C#N)CCC1O (some centres unmarked) [Cmpd 217]"
property_label = "IC50"
readout_value = "100 to 800 nM"

[[record]]
compound = "CC1(C)[C@@H](O)C[C@H]1Nc1nc(NCCc2cccs2)ncc1C#N [Cmpd 189]"
property_label = "IC50"
readout_value = "100 to 800 nM"

[[record]]
compound = "CC1(C)C[C@H](Nc2nc(NCCc3ccccn3)ncc2C#N)CC[C@@H]1O [Cmpd 282]"
property_label = "IC50"
readout_value = "2000 to 10000 nM"


Task: Look at this compound and give its reported IC50. Cc1nc(CCNc2ncc(C#N)c(N[C@@H]3CC[C@H](O)C(C)(C)C3)n2)no1 [Cmpd 195]
Result: 2000 to 10000 nM

Task: # query: IC50 of entry CCc1cccn1CCNc1ncc(C#N)c(N[C@H]2CC[C@@H](C(N)=O)CC2)n1 [Cmpd 323]
Result: 100 to 800 nM
